Catalogue of IC50 readings, one per entry.
molecular target: KRAS G12D (Homo sapiens, UniProt P01116, G12D); assay: HTRF KRAS-SOS1 interaction assay, KRAS G12D; details: binned ≤2 μM / >2 μM, read-out: Inhibition of KRAS G12D (IC50)
Sequence (P01116 1-188 isoform P01116-2 G12D): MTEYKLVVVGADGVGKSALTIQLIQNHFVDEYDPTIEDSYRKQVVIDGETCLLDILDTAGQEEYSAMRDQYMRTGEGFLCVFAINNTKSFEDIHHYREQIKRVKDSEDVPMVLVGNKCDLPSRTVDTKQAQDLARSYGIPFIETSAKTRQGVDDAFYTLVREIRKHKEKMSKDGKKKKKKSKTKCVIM

Ask: Which IC50 reading was recorded for the molecule N#Cc1c(N)sc2c(F)ccc(-c3c(C(F)(F)F)c4c5c(nc(OC[C@@]67CCCN6[C@H](COc6nccnc6C(F)F)CC7)nc5c3F)N([C@@H](c3cccnc3N)C(F)F)CCO4)c12 (single isomer, unassigned) ?
Reply: ≤ 2000 nM

Ask: Which IC50 reading was recorded for the molecule CCO/N=C(\C)CCC[C@H](c1cccnc1N)N1CCOc2c(C(F)(F)F)c(-c3ccc(F)c4sc(N)c(C#N)c34)c(F)c3nc(OC[C@@]45CCCN4C[C@H](F)C5)nc1c23 (single isomer, unassigned) [Compound 720] ?
Reply: ≤ 2000 nM

Ask: Which IC50 reading was recorded for the molecule CCN(CC)CCC[C@H](c1cccnc1N)N1CCOc2c(C(F)(F)F)c(-c3ccc(F)c4sc(NC)c(C#N)c34)c(F)c3nc(OC[C@@]45CCCN4C[C@H](F)C5)nc1c23 (single isomer, unassigned) ?
Reply: ≤ 2000 nM

Ask: Which IC50 reading was recorded for the molecule C[C@H](c1cccnc1N)N1CCOc2c(Cl)c(-c3ccc(F)c4sc(N)c(C#N)c34)c(F)c3nc(OCC45CCCC4CCC5)nc1c23 (single isomer, unassigned) [Compound 674] ?
Reply: > 2000 nM

Ask: Which IC50 reading was recorded for the molecule CC(c1cccnc1N)N1c2nc(OC[C@@]34CCCN3C[C@H](F)C4)nc3c(F)c(-c4ccc(F)c5sc(N)c(C#N)c45)c(Cl)c(c23)OC[C@@H]1CC#N (mixture of isomers) ?
Reply: ≤ 2000 nM

Ask: Which IC50 reading was recorded for the molecule C[C@H](c1nccnc1N)N1CCOc2c(C(F)(F)F)c(-c3ccc(F)c4sc(N)c(C#N)c34)c(F)c3nc(OC[C@@]45CCCN4C[C@H](F)C5)nc1c23 (single isomer, unassigned) [Compound 797] ?
Reply: > 2000 nM

Ask: Which IC50 reading was recorded for the molecule CC(c1cccnc1N)N1c2nc(OC[C@@]34CCCN3C[C@H](F)C4)nc3c(F)c(-c4ccc(F)c5sc(N)c(C#N)c45)c(Cl)c(c23)OC[C@@H]1C(F)F (mixture of isomers) ?
Reply: ≤ 2000 nM

Ask: Which IC50 reading was recorded for the molecule CP(C)(=O)CC[C@H](c1cccnc1N)N1CCOc2c(C(F)(F)F)c(-c3ccc(F)c4sc(N)c(C#N)c34)c(F)c3nc(OC[C@@]45CCCN4C[C@H](F)C5)nc1c23 (single isomer, unassigned) ?
Reply: ≤ 2000 nM

Ask: Which IC50 reading was recorded for the molecule N#Cc1c(N)sc2c(F)ccc(-c3c(C(F)(F)F)c4c5c(nc(OC[C@@]67CCCN6C[C@H](F)C7)nc5c3F)N([C@H](CC3CCOC3)c3cccnc3N)CCO4)c12 (single isomer, unassigned) [Compound 692] ?
Reply: ≤ 2000 nM
